All values here come from patent US20250388544A1.

# TARGET: hMMP 9 (Homo sapiens, UniProt P14780)
# Construct: purchased R&D systems
# Sequence (P14780 107-707 limits assumed): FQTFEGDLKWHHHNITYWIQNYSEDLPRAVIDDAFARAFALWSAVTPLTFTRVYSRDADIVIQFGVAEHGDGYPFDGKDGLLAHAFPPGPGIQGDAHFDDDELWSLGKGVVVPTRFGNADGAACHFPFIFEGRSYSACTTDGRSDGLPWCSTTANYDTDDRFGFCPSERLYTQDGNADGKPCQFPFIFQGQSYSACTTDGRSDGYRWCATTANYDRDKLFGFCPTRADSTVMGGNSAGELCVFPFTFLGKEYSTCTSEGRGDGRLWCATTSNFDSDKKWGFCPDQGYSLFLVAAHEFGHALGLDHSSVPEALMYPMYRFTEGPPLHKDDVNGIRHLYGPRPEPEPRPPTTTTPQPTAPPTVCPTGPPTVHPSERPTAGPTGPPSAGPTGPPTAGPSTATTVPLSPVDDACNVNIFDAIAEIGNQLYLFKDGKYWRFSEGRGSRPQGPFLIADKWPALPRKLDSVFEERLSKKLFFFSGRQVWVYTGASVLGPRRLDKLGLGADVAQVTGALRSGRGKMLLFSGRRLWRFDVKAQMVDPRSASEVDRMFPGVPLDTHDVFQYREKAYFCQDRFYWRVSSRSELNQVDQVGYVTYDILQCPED
# EXPERIMENT: Residual enzyme activity of other metalloproteases
# Assay type: biochemical
# EXPERIMENTAL CONDITIONS: 200 μM inhibitor; read-out: Residual enzyme activity MMP9
# Description: The determination of enzymatic activity was based on the cleavage of internally quenched peptide substrates. A typical assay of 250 μl total volume measured in black 96 well plates consisted of 100 μl buffer, 50 μl enzyme at a final concentration of 5e-8 M to 2e-10 M, 50 μl substrate (0.15 to 80 μM, in buffer, 0.5% DMSO) and 50 μl inhibitor solution (in buffer, 1% DMSO). In case of 125 μl assay volume (black 96 half area well plates) all volumes were cut in half. […]
MEASUREMENT NAME: remaining activity at 200 µM (%)
Kindly answer with a numeric value in %, unit omitted.

Past entries and their recorded results:
O=C(Cc1c(-c2ccccc2)nn(Cc2ccc3c(c2)OCO3)c1-c1ccccc1)NO
60
O=C(CCc1c(-c2ccccc2)n[nH]c1-c1ccccc1)NO
65
O=C(Cn1c(-c2ccccc2)nc2ccccc21)NO
68

INPUT: Fill in: remaining activity at 200 µM of O=C(CCc1c(-c2ccccc2)noc1-c1ccccc1)NO is ___
OUTPUT: 39

INPUT: Fill in: remaining activity at 200 µM of O=C(Cn1c(-c2ccccc2)nnc1-c1ccccc1)NO is ___
OUTPUT: 54

INPUT: Fill in: remaining activity at 200 µM of O=C(Cc1c(-c2ccccc2)nn(Cc2ccc(Cl)c(O)c2F)c1-c1ccccc1)NO is ___
OUTPUT: 14

INPUT: Fill in: remaining activity at 200 µM of O=C(Cc1c(-c2cc(F)c(O)c(Cl)c2)n[nH]c1-c1ccccc1)NO is ___
OUTPUT: 39

INPUT: Fill in: remaining activity at 200 µM of O=C(Cc1c(-c2ccc3c(c2)OCO3)n[nH]c1-c1ccc2c(c1)OCO2)NO is ___
OUTPUT: 10

INPUT: Fill in: remaining activity at 200 µM of O=C(Cn1c(-c2ccccc2)ccc1-c1ccccc1)NO is ___
OUTPUT: 1
